Target: T1, WT H3.3 26-35 peptide/HLA-A*02:01 complex on T2 cells (human)
T1 construct: whole, on cells; T2 cells pulsed with the synthetic peptide; also called T2-WT H3.3; T2-WT 3.3
Assay: flow cytometry, scFv phage on T2 cells, anti-M13 + labelled anti-mouse IgG
READOUT: Median MFI (PE-A) (MFI)

{"BINDER": "Phage clone 38 (scFv, fusion to the phage coat protein not described) scFv: SYELTQPPSVSVAPGKTARITCGGNNIGSKSVNWYQQKPGQAPVLVIYYDNDRPSGIPERFSGSNSGNTATLTISRVEAGDEADYYCQVWNSSSDHYVFGTGTKVTVLGSRGGGGSGGGGSGGGGSLEMAQMQLVQSGAEVKTTGASVRVSCKASGYTFTDYYLHWVRQAPGQGLEWMGWINPHSGGTNYAQKFQGRVTMTRDTSISTAYMELSSLRSDDTAVYYCAREDYSGSGSSDAWGQGTLVTVSS", "READOUT": "Median MFI (PE-A)", "RESULT NUMBER": 32900}
{"BINDER": "Phage clone 33 (scFv, fusion to the phage coat protein not described) scFv: QSVLTQPPSVSGAPGQRVTIFCTGSSSNIGAGYDVHWYQQLPGTAPKLLIYGNNNRPSGVPDRFSGSKSGTSASLAITGLQAEDEADYYCQSYDTSLTPVFGGGTKLTVLGSRGGGGSGGGGSGGGGSLEMAEVQLVQSGAEVRKPGSSVKVSCKASAGTFNRYSLSWVRQAPGQGLEWVGRIIPIIGVADYAQKFQGRVTITADKSATTAYMELHSLRSEDTAVYYCARQEYSYAMDYWGQGTLVTVSS", "READOUT": "Median MFI (PE-A)", "RESULT NUMBER": 49100}
{"BINDER": "Phage clone 36 (scFv, fusion to the phage coat protein not described) scFv: SSELTQDPAVSVALGQTVRITCQGDSLRSYYANWYQQKPGQAPVLVIYAKSNRPSGIADRFSGSSSGNTASLTITGAQAEDEADYYCNSRDSSGNRWVFGGGTKVTVLGSRGGGGSGGGGSGGGGSLEMAEVQLVQSGAEVKKPGASVKVSCKASGYTFTGYYMHWVRQAPGKGLEWMGGFDPEDGETIYAQKFQGRVTMTEDTSTDTAYMELSSLRSEDTAVYYCARSSWWSPVTYYDIWGQGTLVTVSS", "READOUT": "Median MFI (PE-A)", "RESULT NUMBER": 33600}
